- SYSTEM TESTED: NAGK (N-acetyl glutamate kinase, Arg6) (Saccharomyces cerevisiae, UniProt Q01217)

- CPD SMILES: "N=C(N)NCCC[C@H](N)C(=O)O"
  IC50 [µM]: 90

###

- SYSTEM TESTED: NAGK (N-acetyl glutamate kinase, Arg6) (Saccharomyces cerevisiae, UniProt Q01217, T340S)
- Sequence (Q01217 58-513 T340S): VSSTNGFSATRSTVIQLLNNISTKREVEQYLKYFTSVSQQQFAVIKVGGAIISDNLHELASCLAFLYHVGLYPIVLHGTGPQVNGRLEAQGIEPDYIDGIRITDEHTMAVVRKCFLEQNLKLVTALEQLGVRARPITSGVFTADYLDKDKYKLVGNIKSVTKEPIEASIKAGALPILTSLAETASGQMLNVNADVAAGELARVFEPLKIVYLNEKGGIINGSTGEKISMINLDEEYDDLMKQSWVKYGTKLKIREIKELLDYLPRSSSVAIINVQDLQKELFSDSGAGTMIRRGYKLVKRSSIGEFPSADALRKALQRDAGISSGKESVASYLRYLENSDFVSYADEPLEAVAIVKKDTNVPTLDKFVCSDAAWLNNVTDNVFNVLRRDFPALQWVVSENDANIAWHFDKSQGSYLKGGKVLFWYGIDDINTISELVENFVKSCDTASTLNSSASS
- ASSAY COMMENT: PK/LDH-coupled NADH oxidation at […] nm
pIC50: −log10 of the molar value.
REPORTED METRIC: pIC50

- MOLECULE: "N=C(N)NCCC[C@H](N)C(=O)O [arginine]"
  NUMERIC RESULT: 3.77

###

- SYSTEM TESTED: NAGK (N-acetyl glutamate kinase, Arg6) (Saccharomyces cerevisiae, UniProt Q01217, T340R)
- Sequence (Q01217 58-513 T340R): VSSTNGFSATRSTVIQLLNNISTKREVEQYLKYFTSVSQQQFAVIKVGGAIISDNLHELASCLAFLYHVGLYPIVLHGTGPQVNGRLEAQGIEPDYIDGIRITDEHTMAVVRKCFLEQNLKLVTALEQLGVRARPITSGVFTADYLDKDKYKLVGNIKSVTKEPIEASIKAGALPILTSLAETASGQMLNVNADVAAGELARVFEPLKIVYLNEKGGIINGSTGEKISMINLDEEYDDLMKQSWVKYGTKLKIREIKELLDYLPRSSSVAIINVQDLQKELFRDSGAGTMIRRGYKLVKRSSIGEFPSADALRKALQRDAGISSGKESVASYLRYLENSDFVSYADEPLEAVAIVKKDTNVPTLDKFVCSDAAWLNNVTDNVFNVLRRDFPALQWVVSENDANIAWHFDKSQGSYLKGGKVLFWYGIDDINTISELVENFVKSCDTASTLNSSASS
- ASSAY COMMENT: PK/LDH-coupled NADH oxidation at […] nm

- CPD SMILES: "N=C(N)NCCC[C@H](N)C(=O)O"
  IC50 (µM): 2480

###

- SYSTEM TESTED: NAGK (N-acetyl glutamate kinase, Arg6) (Saccharomyces cerevisiae, UniProt Q01217, V267A)
- Sequence (Q01217 58-513 V267A): as the sequence (Q01217 58-513 T340S) above, with V210A, S283T counted along it
- ASSAY COMMENT: PK/LDH-coupled NADH oxidation at […] nm
REPORTED METRIC: IC50 (µM)

- CPD SMILES: "N=C(N)NCCC[C@H](N)C(=O)O"
  REPORTED METRIC: "IC50"
  UNITS TEXT: "µM"
  NUMERIC RESULT: 2830

###

- SYSTEM TESTED: NAGK (N-acetyl glutamate kinase, Arg6) (Saccharomyces cerevisiae, UniProt Q01217, T340L)
- Sequence (Q01217 58-513 T340L): as the sequence (Q01217 58-513 T340S) above, with S283L counted along it
- ASSAY COMMENT: PK/LDH-coupled NADH oxidation at […] nm
REPORTED METRIC: IC50 (mM)

- COMPOUND: "N=C(N)NCCC[C@H](N)C(=O)O [arginine]"
  REPORTED METRIC: "IC50"
  NUMERIC RESULT: 10.5
